# Tested on: LPS-induced TNFα secretion in monocyte-derived macrophages (MdM)
# TEST: MdM assay: LPS-triggered TNFα (ELISA)
# Format: cell-based, human
# CONDITION_DETAILS: Homo sapiens, Macrophage, LPS-triggered TNFα inhibition
# Method: This assay evaluates illustrative compounds of the invention for their inhibition of LPS-induced TNFα and LPS triggered IL-10 secretion in monocyte-derived macrophages. PBMCs are isolated from human blood samples (buffycoats). The buffy coat is aseptically transferred into a 50 mL Falcon tube, and diluted 1/2 in PBS. […]
ATTRIBUTE_MEASURED: EC50

Field: example entries. Status: answers known.
COc1cc(-n2cnc3cc(-c4cnn(C5CN(C)C5)c4)ccc32)cc(OC)c1C(=O)NCC(F)(F)F = 0.1 to 100 nM
COc1cc(-n2cnc3cc(-c4nnc(C)[nH]4)ccc32)cc(OC)c1C(=O)NCC(F)(F)F = > 5000 nM
CCNC(=O)c1c(OC)cc(-n2cnc3cc(-c4cnn(CCN5CCOCC5)c4)ccc32)cc1OC = 1000 to 5000 nM

For each of the compounds below, note its EC50.
1. COc1cc(-c2cnc3cc(-c4cnn(C)c4)ccn23)cc(OC)c1C(=O)N1CC(C#N)C1
2. COc1cc(-c2cnc3cc(-c4ccc(C#N)nc4)ccn23)cc(OC)c1C(=O)NCC(F)(F)F
3. CCCn1cc(-c2ccc3c(c2)ncn3-c2cc(OC)c(C(=O)NCC(F)(F)F)c(OC)c2)cn1
4. COc1cc(-c2cnc3cc(-c4cnn(CC(=O)OCC5CCCO5)c4)ccn23)cc(OC)c1C(=O)NCC(F)(F)F (centres unmarked)

["100 to 1000 nM", "100 to 1000 nM", "0.1 to 100 nM", "100 to 1000 nM"]

====

# Tested on: LPS triggered IL-10 secretion in monocyte-derived macrophages (MdM)
# TEST: MdM assay: LPS-triggered IL-10 (ELISA)
# Assay type: cell-based, human
# CONDITION_DETAILS: maximal fold change vs LPS only, median across assays
ATTRIBUTE_MEASURED: IL-10 FCmax median

Solved cases below.
COc1cc(-c2cnc3cc(-c4cnn(C)c4)ccn23)cc(Cl)c1C(=O)NCC(F)(F)F = ++ (>1.5-4.5)
COc1cc(-n2cnc3cc(-c4cnn(C5COC5)c4)ccc32)cc(OC)c1C(=O)NCC(F)(F)F = ++ (>1.5-4.5)
COc1cc(-n2cnc3cc(-c4cnn(C5CN(C)C5)c4)ccc32)cc(OC)c1C(=O)NCC(F)(F)F = ++ (>1.5-4.5)
CCOC(=O)C(C)Cn1cc(-c2ccn3c(-c4cc(OC)c(C(=O)NCC(F)(F)F)c(OC)c4)cnc3c2)cn1 (stereo not drawn) = ++ (>1.5-4.5)

Please give IL-10 FCmax median, item by item, for the list that follows.
1. CCNC(=O)c1c(OC)cc(-c2cnc3cc(-c4cnn(C5CCN(C)CC5)c4)ccn23)cc1OC(F)F
2. CCn1cc(-c2ccc3c(c2)ncn3-c2cc(OC)c(C(=O)NCC#N)c(OC)c2)cn1
3. CCOC(=O)Cn1cc(-c2ccn3c(-c4cc(OC)c(C(=O)NCC(F)(F)F)c(OC)c4)cnc3c2)cn1
4. CCn1cc(-c2ccc3c(c2)ncn3-c2cc(OC)c(C(=O)NCC(F)F)c(OC)c2)cn1

1. ++ (>1.5-4.5)
2. ++ (>1.5-4.5)
3. +++ (>4.5)
4. ++ (>1.5-4.5)

Each compound below has a reported value. Please supply its IL-10 FCmax median.
1. COc1cc(-n2cnc3cc(-c4cnn(C)c4)ccc32)cc(OC)c1C(=O)N1CC(O)(C(F)(F)F)C1
2. COc1cc(-c2cnc3cc(-c4cc(C)no4)ccn23)cc(OC)c1C(=O)N[C@H](C)C(F)(F)F
3. COc1cc(-n2cnc3cc(-c4cnn(CC#N)c4)ccc32)cc(OC)c1C(=O)NCC(F)(F)F
4. COc1cc(-n2cnc3cc(-c4cnn(C)c4)ccc32)cc(OC)c1C(=O)N[C@@H]1C[C@@H]1C(F)F
5. COc1cc(-c2cnc3cc(-c4cnn(C)c4)ccn23)cc(F)c1C(=O)NCC(F)(F)F
6. COc1cc(-n2cnc3cc(-c4cnoc4)ccc32)cc(OC)c1C(=O)NCC(F)(F)F

1. ++ (>1.5-4.5)
2. +++ (>4.5)
3. ++ (>1.5-4.5)
4. ++ (>1.5-4.5)
5. +++ (>4.5)
6. ++ (>1.5-4.5)

====

# SYSTEM: SIK3 (Homo sapiens)
# Construct: purchased SignalChem S12-11G-100
# Sequence (Q9Y2K2 whole entry): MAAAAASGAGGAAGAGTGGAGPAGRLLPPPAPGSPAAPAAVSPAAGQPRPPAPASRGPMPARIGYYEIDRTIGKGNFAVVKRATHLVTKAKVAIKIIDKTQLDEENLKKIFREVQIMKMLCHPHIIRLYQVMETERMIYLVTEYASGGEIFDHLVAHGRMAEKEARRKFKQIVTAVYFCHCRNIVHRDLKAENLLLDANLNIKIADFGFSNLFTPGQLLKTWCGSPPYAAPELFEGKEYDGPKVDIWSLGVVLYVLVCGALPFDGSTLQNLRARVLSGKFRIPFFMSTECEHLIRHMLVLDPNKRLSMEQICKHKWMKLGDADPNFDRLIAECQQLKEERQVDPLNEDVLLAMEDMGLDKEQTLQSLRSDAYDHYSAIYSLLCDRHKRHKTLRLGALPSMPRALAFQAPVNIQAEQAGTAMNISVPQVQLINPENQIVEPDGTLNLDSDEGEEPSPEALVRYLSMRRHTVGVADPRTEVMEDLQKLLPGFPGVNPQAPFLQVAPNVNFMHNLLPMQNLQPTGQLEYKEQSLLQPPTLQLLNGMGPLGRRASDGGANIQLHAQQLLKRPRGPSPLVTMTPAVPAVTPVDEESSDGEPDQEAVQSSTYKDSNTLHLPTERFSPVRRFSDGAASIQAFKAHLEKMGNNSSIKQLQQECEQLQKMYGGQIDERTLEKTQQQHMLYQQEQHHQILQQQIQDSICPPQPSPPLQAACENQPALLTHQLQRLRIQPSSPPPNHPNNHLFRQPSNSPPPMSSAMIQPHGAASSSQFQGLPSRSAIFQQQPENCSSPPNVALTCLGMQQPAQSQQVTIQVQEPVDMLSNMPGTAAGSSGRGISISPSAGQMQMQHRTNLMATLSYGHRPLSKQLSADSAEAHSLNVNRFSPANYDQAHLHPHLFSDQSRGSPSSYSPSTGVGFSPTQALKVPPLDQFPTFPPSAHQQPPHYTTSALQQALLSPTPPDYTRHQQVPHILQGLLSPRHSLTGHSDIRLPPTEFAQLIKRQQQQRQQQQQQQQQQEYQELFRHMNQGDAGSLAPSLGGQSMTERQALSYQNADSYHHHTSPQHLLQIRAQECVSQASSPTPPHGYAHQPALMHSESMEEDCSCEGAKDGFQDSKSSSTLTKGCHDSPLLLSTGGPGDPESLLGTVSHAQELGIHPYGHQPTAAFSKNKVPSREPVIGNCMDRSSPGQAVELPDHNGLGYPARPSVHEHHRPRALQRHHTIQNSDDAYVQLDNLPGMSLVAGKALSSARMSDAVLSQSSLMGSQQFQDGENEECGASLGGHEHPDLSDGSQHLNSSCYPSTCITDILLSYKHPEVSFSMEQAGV
# TEST: biochemical
ATTRIBUTE_MEASURED: IC50

A selection of reference data follows.
CCNC(=O)c1c(O)cc(-n2cnc3cc(-c4cnn(CC)c4)ccc32)cc1OC = 10 to 100 nM
COc1cc(-c2cnc3cc(-c4cnn(C)c4)ccn23)cc(OC)c1C(=O)N1CC(C#N)C1 = 0.01 to 10 nM
COc1cc(-n2cnc3cc(-c4cnn(C)c4)ccc32)cc(OC)c1C(=O)NCCN = 10 to 100 nM
COc1cc(-c2cnc3cc(-c4cnn(C)c4)ccn23)cc2c1C(=O)N(C1CC1)CC2 = 0.01 to 10 nM
COc1cc(-c2cnc3cc(-c4cnn(C)c4)ccn23)cc(OC)c1C(=O)NCC(C)C = 0.01 to 10 nM

Items follow; give IC50 for each.
1. COc1cc(-n2cnc3cc(-c4cnn(C)c4)ccc32)cc(OC)c1C(=O)N[C@@H]1CC[C@H]1O
2. COc1cc(-n2cnc3cc(-c4cnn(C)c4)ccc32)cc(OC)c1C(=O)NCC#N
3. COc1cc(-n2cnc3cc(-c4cnn(C)c4)ccc32)cc(OC(C)C)c1C(=O)NC1CC1
4. CCNC(=O)c1c(OC)cc(-c2cnc3cc(-c4ccnnc4)ccn23)cc1OC(F)F
5. CCn1cc(-c2ccc3c(c2)ncn3-c2cc(OC)c(C(=O)NC3CCC3)c(OC)c2)cn1
6. COc1cc(-c2cnc3cc(-c4cnn(C)c4)ccn23)cc(OC)c1C(=O)N1CCC(F)(F)CC1

1: 10 to 100 nM; 2: 0.01 to 10 nM; 3: 100 to 500 nM; 4: 10 to 100 nM; 5: 10 to 100 nM; 6: 100 to 500 nM

====

# SYSTEM: SIK2 (Homo sapiens, UniProt Q9H0K1)
# Construct: purchased ThermoFisher Scientific PV4792
# Sequence (Q9H0K1 whole entry): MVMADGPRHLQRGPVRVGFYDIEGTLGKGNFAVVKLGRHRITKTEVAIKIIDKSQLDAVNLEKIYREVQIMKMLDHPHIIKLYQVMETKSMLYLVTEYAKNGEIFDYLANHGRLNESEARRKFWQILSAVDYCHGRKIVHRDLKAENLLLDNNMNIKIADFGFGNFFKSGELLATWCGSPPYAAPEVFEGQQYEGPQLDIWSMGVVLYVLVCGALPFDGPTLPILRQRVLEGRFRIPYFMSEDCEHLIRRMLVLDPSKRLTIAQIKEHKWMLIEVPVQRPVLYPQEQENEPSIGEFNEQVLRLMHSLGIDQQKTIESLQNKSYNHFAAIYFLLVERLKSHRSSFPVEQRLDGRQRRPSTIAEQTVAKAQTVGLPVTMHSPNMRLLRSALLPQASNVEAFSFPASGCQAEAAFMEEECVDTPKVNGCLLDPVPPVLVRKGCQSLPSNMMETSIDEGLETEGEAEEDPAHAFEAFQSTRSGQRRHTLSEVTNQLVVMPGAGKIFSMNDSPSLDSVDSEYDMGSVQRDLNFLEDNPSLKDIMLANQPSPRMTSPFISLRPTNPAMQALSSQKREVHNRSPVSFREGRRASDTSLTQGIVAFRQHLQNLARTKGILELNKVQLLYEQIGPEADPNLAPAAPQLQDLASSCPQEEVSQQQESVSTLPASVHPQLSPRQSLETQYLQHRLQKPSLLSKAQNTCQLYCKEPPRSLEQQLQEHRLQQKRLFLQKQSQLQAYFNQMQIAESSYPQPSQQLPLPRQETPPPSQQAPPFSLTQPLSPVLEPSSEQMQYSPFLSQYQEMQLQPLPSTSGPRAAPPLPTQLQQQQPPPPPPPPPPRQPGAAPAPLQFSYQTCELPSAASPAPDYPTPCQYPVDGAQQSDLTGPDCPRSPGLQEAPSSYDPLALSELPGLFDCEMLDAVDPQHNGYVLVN
# TEST: biochemical
# CONDITION_DETAILS: 33P radioactive SIK kinase assay, AMARA peptide, 10 μM ATP
ATTRIBUTE_MEASURED: IC50

COc1cc(-c2cnc3cc(-c4cnn(CC(=O)OCC5CCC5)c4)ccn23)cc(OC)c1C(=O)NCC(F)(F)F [Cpd 238] = 0.01 to 10 nM
CCn1cc(-c2ccc3c(c2)ncn3-c2cc(OC)c(C(=O)N(C)CC#N)c(OC)c2)cn1 [compound 31] = 100 to 500 nM
CCNC(=O)c1c(OC)cc(-c2cnn3cc(-c4cnn(C)c4)ccc23)cc1OC(F)F [compound 117] = 0.01 to 10 nM

// each listed compound needs a value for IC50
1. COc1cc(-n2cnc3cc(-c4cnn(C(F)F)c4)ccc32)cc(OC)c1C(=O)NCC(F)(F)F [compound 97]
2. COc1cc(-c2cnc3cc(-c4cnn(CC(=O)OCCF)c4)ccn23)cc(OC)c1C(=O)NCC(F)(F)F [Cpd 235]

1. 0.01 to 10 nM
2. 0.01 to 10 nM

Go through the list and state IC50 for each entry.
1. COc1cc(-n2cnc3cc(-c4ccnc(N5CCN(C)CC5)c4)ccc32)cc(OC)c1C(=O)NCC(F)(F)F [compound 120]
2. CCNC(=O)c1c(OC)cc(-c2cnc3cc(-c4cnn(C5CCNCC5)c4)ccn23)cc1OC(F)F [compound 149]

10 to 100 nM
0.01 to 10 nM

====

Give pEC50 for every item shown.
# System: LPS-induced TNFα secretion in monocyte-derived macrophages (MdM)
# TEST: MdM assay: LPS-triggered TNFα (ELISA)
# Format: cell-based, human
# CONDITION_DETAILS: Homo sapiens, Macrophage, LPS-triggered TNFα inhibition
pEC50: −log10 of the molar value.

Known pEC50 results, listed for orientation:
COc1ccc(-c2ccn3c(-c4cc(OC)c(C(=O)NCC(F)(F)F)c(OC)c4)cnc3c2)cn1 [compound 239] = 6.00 to 7.00
COc1cc(-n2cnc3cc(-c4cnn(C5CCN(C)CC5)c4)ccc32)cc(OC)c1C(=O)NCC(F)(F)F [Cpd 46] = 7.00 to 10.00
CCOC(=O)COc1cn2c(-c3cc(OC)c(C(=O)NC4CC4)c(OC(F)F)c3)cnc2cc1-c1cnn(C)c1 [Cpd 298] = 5.30 to 6.00

Report its pEC50 with LPS-induced TNFα secretion in monocyte-derived macrophages (MdM) as the test system: COc1cc(-c2cnc3cc(-c4ccc(N5CCOCC5)nc4)ccn23)cc(OC)c1C(=O)NCC(F)(F)F [compound 251] 7.00 to 10.00

Cited source: patent US12065443B2
